test system: human SMAD7 mRNA; test: Antisense inhibition of human SMAD7 mRNA expression in Hep3B cells by 3-10-3 cEt gapmers, 10,000 nM, electroporation (Example 2); format: cell-based; details: Hep3B cells, electroporation with 10,000 nM antisense oligonucleotide, approximately 24 hours, SMAD7 mRNA by RT-PCR (RTS5062), relative to untreated control cells
Strand notation (5' to 3'): a small letter for the sugar, then the base; units joined by * are phosphorothioate-linked, units joined directly phosphodiester-linked; [ ] holds rarer units or linkages, { } end groups; capitals alone tell only the bases. k = constrained ethyl (cEt); [5mC] = 5-methylcytosine; d = 2'-deoxy (DNA)
attributeMeasured: % Inhibition (%)

substance | attributeMeasured | measValue
830160 (antisense kT*kG*kG*dT*dG*dT*dG*dT*dT*dA*dA*d[5mC]*d[5mC]*kA*k[5mC]*kT) [compound 830160] | % Inhibition | 54
799410 (antisense kT*k[5mC]*kT*dG*dT*dT*dT*dA*d[5mC]*dA*d[5mC]*dA*d[5mC]*kA*kT*kT) [compound 799410] | % Inhibition | 79
798864 (kG*kT*k[5mC]*d[5mC]*dG*dG*dG*dT*dT*dG*dT*d[5mC]*d[5mC]*kA*kG*kT; antisense) [compound 798864] | % Inhibition | 33
799334 (k[5mC]*k[5mC]*kG*dT*dA*dG*dA*d[5mC]*d[5mC]*d[5mC]*d[5mC]*dT*dT*k[5mC]*kG*kG; antisense) [compound 799334] | % Inhibition | 21
799866 (k[5mC]*kA*k[5mC]*d[5mC]*dG*d[5mC]*dG*d[5mC]*dA*dG*dG*dG*dA*k[5mC]*kA*kG; antisense) [compound 799866] | % Inhibition | 0
799409 (antisense k[5mC]*kT*kA*d[5mC]*d[5mC]*dT*dA*dA*dT*dG*dT*d[5mC]*dA*kA*k[5mC]*kA) [compound 799409] | % Inhibition | 34
830090 (kA*kT*kA*d[5mC]*dA*d[5mC]*dA*dA*dG*dA*d[5mC]*d[5mC]*d[5mC]*kT*kG*kT; antisense) [compound 830090] | % Inhibition | 10
830192 (antisense kA*k[5mC]*kT*dA*dA*dT*d[5mC]*dA*dG*dA*dT*dG*d[5mC]*k[5mC]*kT*kG) [compound 830192] | % Inhibition | 41
798869 (kA*kA*k[5mC]*dA*d[5mC]*d[5mC]*dT*dT*dG*dT*dG*dT*dA*k[5mC]*k[5mC]*kA; antisense) [compound 798869] | % Inhibition | 41
799981 (kA*k[5mC]*k[5mC]*dA*dA*d[5mC]*dG*dG*dT*dT*dG*d[5mC]*d[5mC]*kT*k[5mC]*kA; antisense) [compound 799981] | % Inhibition | 14
799474 (antisense k[5mC]*kA*kA*dG*dA*dG*dT*d[5mC]*d[5mC]*dA*dG*d[5mC]*d[5mC]*k[5mC]*kT*kA) [compound 799474] | % Inhibition | 39
